experiment: Compound was tested for its toxicity after intravenous administration to mice in experiment 1; conditions: mouse, in vivo
Below, each entry is listed alongside its reported LD50.
Hey, just the number and the unit after it is fine.

input: Query: LD50; subject: CC(CCc1ccccc1)NCC(O)c1ccc(O)c(C(N)=O)c1 (stereo not given)
output: 47 mg/kg

input: And CC(C)(C)NCC(O)COc1cccc2c1SCCC2 (stereo not given) ?
output: 37 mg/kg

input: And CC(=O)c1cc2cccc(OCC(O)CNC(C)C)c2o1 (stereo not given) ?
output: 102 mg/kg

---

test: Compound was tested for its toxicity after intravenous administration in mice; details: mouse, in vivo
property.measured: LD50 (mg/kg)
State just the number; it will be interpreted in mg/kg.

O=C(O)C1CCc2cc(C3CCCCC3)c(Cl)cc21 (configuration not stated)
34

Let us move to another entry and its LD50.
input: Query: LD50; subject: CCCCCC(O)C1C(=O)OC(C)C(O)/C=C/C=C/C=C/C=C/C=C(\C)C(O)CC(O)CC(O)CC(O)CC(O)CC(O)CC1O (configuration not stated)
output: 5

---

test: Compound was tested for its toxicity after intravenous administration to mice in experiment 1; settings: mouse, in vivo
Below, each entry is listed alongside its reported LD50.
State just the number; it will be interpreted in mg/kg.

Example results:
Cc1cc2c(OCC(CNC(C)(C)C)OC(=O)c3ccccc3)cccc2[nH]1 (configuration not stated)
17
CC(C)NCC(O)c1ccc2ccccc2c1 (configuration not stated)
46
COCCc1ccc(OCC(O)CNC(C)C)cc1 (configuration not stated)
118
CC(C)(C)NCC(O)COc1cccc2c1CCCC2=O (single isomer, unassigned)
25
CC(=O)Oc1c(C)cc(OCC(O)CNC(C)C)c(C)c1C (configuration not stated)
31
CCN(CC)C(=O)Nc1ccc(OCC(O)CNC(C)(C)C)c(C(C)=O)c1 (configuration not stated)
56.2

input: Query: LD50; subject: CCC(C)NCC(O)c1ccc2c(c1)CCCC2 (configuration not stated)
output: 20.2

---

assay: Compound was tested for its toxicity after oral administration to mice in experiment 1; conditions: mouse, in vivo
Below, each entry is listed alongside its reported LD50.
State just the number; it will be interpreted in mg/kg.

CCC(C)NCC(O)c1ccc2c(c1)CCCC2 (stereo not given)
235
CC(C)(C)NCC(O)COc1cccc2c1CCC(=O)N2 (stereo not given)
810

input: Query: LD50; subject: CCc1cccc2cc(C(O)CNC(C)(C)C)oc12 (stereo not given)
output: 117

input: And COCCc1ccc(OCC(O)CNC(C)C)cc1 (stereo not given) ?
output: 2090

input: And CC(C)NCC(O)c1ccc(NS(C)(=O)=O)cc1 (stereo not given) ?
output: 2600

input: And CC(CCc1ccccc1)NCC(O)c1ccc(O)c(C(N)=O)c1 (stereo not given) ?
output: 1450

---

experiment: Compound was tested for its toxicity after oral administration to mice in experiment 1; settings: mouse, in vivo
Below, each entry is listed alongside its reported LD50.
Hey, just the number and the unit after it is fine.

Example results:
CC(C)(C)NCC(O)COc1cccc2c1CCCC2=O (single isomer, unassigned)
700 mg/kg
CC(C)NCC(O)c1ccc2ccccc2c1 (stereo not given)
512 mg/kg
CC(C)NCC(O)COc1ccc(CCOCC2CC2)cc1 (stereo not given)
944 mg/kg
CCN(CC)C(=O)Nc1ccc(OCC(O)CNC(C)(C)C)c(C(C)=O)c1 (stereo not given)
1830 mg/kg

Let us move to another entry and its LD50.
input: Query: LD50; subject: Cc1ccc(OCC(O)CNC(C)(C)C)c2oc(=O)ccc12 (stereo not given)
output: 676 mg/kg

---

experiment: Compound was tested for its toxicity after oral administration to mice in experiment 2; settings: mouse, in vivo
Please use 1 (yes) for LD50 under 2000 mg/kg and 0 (no) for everything else, ties included.

O=C(O)C1CCc2cc(C3CCCCC3)c(Cl)cc21 (stereo not drawn)
1 (yes)
CCc1cccc2cc(C(O)CNC(C)(C)C)oc12 (stereo not drawn)
1 (yes)
COCCc1ccc(OCC(O)CNC(C)C)cc1 (stereo not drawn)
0 (no)
CCN(CC)C(=O)Nc1ccc(OCC(O)CNC(C)(C)C)c(C(C)=O)c1 (stereo not drawn)
1 (yes)
CC(C)(C)NCC(O)COc1cccc2c1C[C@H](O)[C@H](O)C2 (stereo partly drawn)
0 (no)
C=CCc1ccccc1OCC(O)CNC(C)C (stereo not drawn)
1 (yes)
CC(C)(C)NCC(O)COc1cccc2c1CCCC2=O (single isomer, unassigned)
1 (yes)

Turning now to a further compound:
input: Quick check: does CC(C)(C)NC[C@H](O)COc1nsnc1N1CCOCC1 have LD50 under 2000 mg/kg?
output: 1 (yes)

---

assay: Compound was tested for its toxicity after intravenous administration to mice in experiment 2; settings: mouse, in vivo
property.measured: LD50
Hey, just the number and the unit after it is fine.

Example results:
CC(CCc1ccccc1)NCC(O)c1ccc(O)c(C(N)=O)c1 (stereo unspecified)
51.1 mg/kg
CC(C)(C)NCC(O)COc1cccc2c1CCCC2=O (single isomer, unassigned)
37.7 mg/kg
CCc1cccc2cc(C(O)CNC(C)(C)C)oc12 (stereo unspecified)
25.9 mg/kg
CC(C)NCC(O)COc1cccc2c1C=CC2 (stereo unspecified)
32.4 mg/kg
CCCC(=O)Nc1ccc(OCC(O)CNC(C)C)c(C(C)=O)c1 (stereo unspecified)
82.2 mg/kg

input: Query: LD50; subject: CC(C)NCC(O)c1ccc2ccccc2c1 (stereo unspecified)
output: 38 mg/kg

input: And CC(C)(C)NCC(O)COc1cccc2c1SCCC2 (stereo unspecified) ?
output: 34.1 mg/kg

input: And COCCc1ccc(OCC(O)CNC(C)C)cc1 (stereo unspecified) ?
output: 292 mg/kg

input: And CC(=O)c1cc2cccc(OCC(O)CNC(C)C)c2o1 (stereo unspecified) ?
output: 75.1 mg/kg

input: And N/C(CC(O)COc1cccc2ccccc12)=N/O (stereo unspecified) ?
output: 119 mg/kg

input: And CCC(C)NCC(O)c1ccc2c(c1)CCCC2 (stereo unspecified) ?
output: 24.6 mg/kg

---

assay: Compound was tested for its toxicity after oral administration to mice in experiment 2; conditions: mouse, in vivo
Below, each entry is listed alongside its reported LD50.
State just the number; it will be interpreted in mg/kg.

CCC(C)NCC(O)c1ccc2c(c1)CCCC2 (stereo unspecified) [BUTIDRINE]
212
CC(C)(C)NCC(O)COc1ccc(NC(=O)NC2CCCCC2)cc1 (stereo unspecified) [TALINOLOL]
1050
CC(C)(C)NCC(O)COc1ccccc1OCC1CCCO1 (stereo unspecified) [BUFETOLOL]
238
CC(C)(C)NCC(O)COc1ccccc1C#N (stereo unspecified) [BUNITROLOL]
998

input: Query: LD50; subject: CC(C)NCC(O)c1ccc2ccccc2c1 (stereo unspecified) [PRONETALOL]
output: 486

input: And CC(C)NCC(O)c1ccc(NS(C)(=O)=O)cc1 (stereo unspecified) [SOTALOL] ?
output: 2630

input: And CC(CCc1ccccc1)NCC(O)c1ccc(O)c(C(N)=O)c1 (stereo unspecified) [LABETALOL] ?
output: 1370

input: And CC(C)(C)NCC(O)COc1cccc2c1CCC(=O)N2 (stereo unspecified) [CARTEOLOL] ?
output: 656

input: And N/C(CC(O)COc1cccc2ccccc12)=N/O (stereo unspecified) [NADOXOLOL] ?
output: 710

input: And Cc1ccc(OCC(O)CNC(C)(C)C)c2oc(=O)ccc12 (stereo unspecified) [BUCUMOLOL] ?
output: 828

input: And CC(C)NCC(O)COc1ccc(CCOCC2CC2)cc1 (stereo unspecified) [BETAXOLOL] ?
output: 625

---

Below, each entry is listed alongside its reported LD50.
assay: Compound was tested for its toxicity after intravenous administration to mice in experiment 1; conditions: mouse, in vivo
State just the number; it will be interpreted in mg/kg.

Example results:
CC(C)NCC(O)COc1ccc(CCOCC2CC2)cc1 (configuration not stated) [BETAXOLOL]
37
N/C(CC(O)COc1cccc2ccccc12)=N/O (configuration not stated) [NADOXOLOL]
180
CCCC(=O)Nc1ccc(OCC(O)CNC(C)C)c(C(C)=O)c1 (configuration not stated) [ACEBUTOLOL]
76
CCc1cccc2cc(C(O)CNC(C)(C)C)oc12 (configuration not stated) [BUFURALOL]
29.7

input: Query: LD50; subject: Cc1ccc(OCC(O)CNC(C)(C)C)c2oc(=O)ccc12 (configuration not stated) [BUCUMOLOL]
output: 33.1

input: And CC(C)(C)NCC(O)COc1ccc(NC(=O)NC2CCCCC2)cc1 (configuration not stated) [TALINOLOL] ?
output: 25

input: And CC(C)NCC(O)COc1cccc2c1C=CC2 (configuration not stated) [INDENOLOL] ?
output: 26
